Target: PI3-kinase p110-delta/p85-alpha (Homo sapiens)
Sequence (P27986 whole entry): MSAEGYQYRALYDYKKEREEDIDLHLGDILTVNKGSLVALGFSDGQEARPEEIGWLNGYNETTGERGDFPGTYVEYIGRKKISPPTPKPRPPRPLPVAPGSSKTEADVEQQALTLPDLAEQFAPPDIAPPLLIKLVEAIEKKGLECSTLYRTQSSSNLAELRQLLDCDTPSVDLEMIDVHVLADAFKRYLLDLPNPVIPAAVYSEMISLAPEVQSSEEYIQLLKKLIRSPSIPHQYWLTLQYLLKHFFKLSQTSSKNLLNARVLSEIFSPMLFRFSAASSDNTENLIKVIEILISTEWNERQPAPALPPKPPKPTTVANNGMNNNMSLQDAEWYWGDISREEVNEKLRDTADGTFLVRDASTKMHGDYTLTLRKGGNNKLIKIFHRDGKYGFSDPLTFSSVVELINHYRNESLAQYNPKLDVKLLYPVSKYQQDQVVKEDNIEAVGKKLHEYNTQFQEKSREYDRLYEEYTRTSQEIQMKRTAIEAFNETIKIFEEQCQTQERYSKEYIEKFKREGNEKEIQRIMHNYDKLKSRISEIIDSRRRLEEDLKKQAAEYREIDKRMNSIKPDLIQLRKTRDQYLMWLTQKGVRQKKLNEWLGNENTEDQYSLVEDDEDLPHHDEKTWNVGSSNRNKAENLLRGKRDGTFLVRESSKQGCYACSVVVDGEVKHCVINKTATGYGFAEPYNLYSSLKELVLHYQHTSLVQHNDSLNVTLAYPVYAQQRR
Sequence (O00329 whole entry): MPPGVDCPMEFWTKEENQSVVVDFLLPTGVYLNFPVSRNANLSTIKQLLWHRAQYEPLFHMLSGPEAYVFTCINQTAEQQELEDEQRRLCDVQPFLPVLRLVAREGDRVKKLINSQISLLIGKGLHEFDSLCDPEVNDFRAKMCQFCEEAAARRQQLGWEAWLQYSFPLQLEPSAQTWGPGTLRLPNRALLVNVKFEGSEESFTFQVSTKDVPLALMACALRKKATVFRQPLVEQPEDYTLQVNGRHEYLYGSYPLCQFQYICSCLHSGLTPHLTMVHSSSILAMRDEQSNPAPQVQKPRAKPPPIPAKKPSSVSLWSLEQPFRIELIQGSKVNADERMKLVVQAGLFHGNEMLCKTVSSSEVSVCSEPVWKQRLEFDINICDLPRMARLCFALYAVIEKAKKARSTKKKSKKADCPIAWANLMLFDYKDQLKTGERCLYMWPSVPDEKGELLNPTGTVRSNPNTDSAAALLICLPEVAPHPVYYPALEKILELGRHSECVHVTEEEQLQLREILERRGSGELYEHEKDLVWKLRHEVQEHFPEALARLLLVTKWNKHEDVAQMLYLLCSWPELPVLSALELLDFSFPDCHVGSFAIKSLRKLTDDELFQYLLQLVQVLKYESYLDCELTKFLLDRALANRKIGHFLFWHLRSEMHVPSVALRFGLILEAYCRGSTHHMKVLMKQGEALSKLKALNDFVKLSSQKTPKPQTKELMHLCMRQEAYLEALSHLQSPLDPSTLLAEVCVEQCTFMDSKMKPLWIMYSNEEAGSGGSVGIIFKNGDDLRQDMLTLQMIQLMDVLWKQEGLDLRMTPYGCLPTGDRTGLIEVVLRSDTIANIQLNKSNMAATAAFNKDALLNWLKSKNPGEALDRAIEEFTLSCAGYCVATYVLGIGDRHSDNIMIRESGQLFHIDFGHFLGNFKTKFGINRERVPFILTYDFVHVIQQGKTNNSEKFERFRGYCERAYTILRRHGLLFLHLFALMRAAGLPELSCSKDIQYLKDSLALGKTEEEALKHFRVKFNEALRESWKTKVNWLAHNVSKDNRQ
Test: Inhibition of recombinant human PI3K p110delta/p85alpha using phosphatidylinositol 4,5-bisphosphate as substrate preincubated for 15 mins followed by addition of ATP and measured after 30 mins by fluorescence polarisation assay
Please note: Ki exactly at 4 nM is No. Only values below 4 nM get Yes.

Q: In plain terms, does `CNS(=O)(=O)N1CC[C@](C)(N2CCc3c(-c4cnc(N)nc4)nc(N4CCOCC4)nc32)C1` come in under 4 nM for Ki?
A: Yes

Q: Hello, is Ki of the following compound strictly smaller than 4 nM? `CNS(=O)(=O)N1CC[C@H](N2CCc3c(-c4cnc(N)nc4)nc(N4CCOCC4)nc32)C1`
A: No

Q: Does the reported Ki of `C[C@]1(N2CCc3c(-c4cnc(N)nc4)nc(N4CCOCC4)nc32)CCN(S(C)(=O)=O)C1` stay below 4 nM?
A: Yes

Q: Take the compound `CC(=O)N1CC[C@@](C)(N2CCc3c(-c4cnc(N)nc4)nc(N4CCOCC4)nc32)C1` and say whether its Ki is less than 4 nM.
A: Yes

Q: Hello, I'm reviewing records and need to know if Ki of `Nc1ncc(-c2cc(N[C@@]3(CO)CCN(C(=O)OCC(F)F)C3)nc(N3CCOCC3)n2)cn1` is below 4 nM. Could you check?
A: Yes

Q: Determine whether this compound shows Ki lower than 4 nM (ties excluded): `Nc1ncc(-c2ccnc(N3CCOCC3)n2)cn1`
A: No

Q: Item `CC(=O)N1CC[C@H](N2CCc3c(-c4cnc(N)nc4)nc(N4CCOCC4)nc32)C1` : Ki beneath 4 nM, strictly?
A: No

Q: Quick check: does `COC(=O)N1CC[C@](CO)(Nc2cc(-c3cnc(N)nc3)nc(N3CCOCC3)n2)C1` have Ki under 4 nM?
A: Yes

Q: Consider the compound `CC(C)(C)OC(=O)N1CC[C@](C)(N2CCc3c(-c4cnc(N)nc4)nc(N4CCOCC4)nc32)C1` . Is its Ki strictly less than 4 nM?
A: Yes

Q: I wonder whether `CC(C)(N)C(=O)N1CC[C@](C)(N2CCc3c(-c4cnc(N)nc4)nc(N4CCOCC4)nc32)C1` has Ki below 4 nM. Can you tell?
A: Yes

Q: Would you kindly verify if Ki of `COC(=O)N1CC[C@](C)(N2CCc3c(-c4cnc(N)nc4)nc(N4CCOCC4)nc32)C1` is strictly less than 4 nM?
A: Yes

Q: In the record for `CC(C)C(=O)N1CC[C@](C)(N2CCc3c(-c4cnc(N)nc4)nc(N4CCOCC4)nc32)C1` , is Ki less than 4 nM?
A: Yes

Q: Ki under 4 nM? Item: `Nc1ncc(-c2nc(N3CCOCC3)nc3c2CCN3[C@H]2CCNC2)cn1`
A: No

Q: Identify whether the compound `COC(=O)N1CC[C@H](N2CCc3c(-c4cnc(N)nc4)nc(N4CCOCC4)nc32)C1` records Ki below 4 nM.
A: No

Q: Is it true that Ki reported for `CS(=O)(=O)N1CC[C@H](N2CCc3c(-c4cnc(N)nc4)nc(N4CCOCC4)nc32)C1` is less than 4 nM?
A: No

Q: Strictly below 4 nM in Ki? `COC(=O)N1CC[C@](CO)(Nc2nc(N3CCOCC3)nc(-c3cnc(N)nc3)c2F)C1`
A: Yes

Q: Dear colleague, could you confirm whether Ki of `CNC(=O)N1CC[C@](C)(N2CCc3c(-c4cnc(N)nc4)nc(N4CCOCC4)nc32)C1` falls below 4 nM? Thanks.
A: Yes

Q: Would you kindly verify if Ki of `CS(=O)(=O)N1CC[C@](CO)(Nc2cc(-c3cnc(N)nc3)nc(N3CCOCC3)n2)C1` is strictly less than 4 nM?
A: Yes

Q: Dear reviewer, please state whether `CC(C)C(=O)N1CC[C@](CO)(Nc2cc(-c3cnc(N)nc3)nc(N3CCOCC3)n2)C1` has Ki strictly beneath 4 nM.
A: Yes

Q: Say whether its Ki is strictly beneath 4 nM. Entry: `CNC(=O)N1CC[C@H](N2CCc3c(-c4cnc(N)nc4)nc(N4CCOCC4)nc32)C1`
A: Yes

Q: Given the entry `CC(C)(C)OC(=O)N1CC[C@](CO)(Nc2cc(-c3cnc(N)nc3)nc(N3CCOCC3)n2)C1` , would its reported Ki be below 4 nM?
A: Yes

Q: Please let me know if `CC(C)(C)OC(=O)N1CC[C@](C)(Nc2cc(-c3cnc(N)nc3)nc(N3CCOCC3)n2)C1` shows Ki below 4 nM.
A: No

Q: Determine whether this compound shows Ki lower than 4 nM (ties excluded): `Nc1ncc(-c2nc(N3CCOCC3)nc(N[C@@]3(CO)CCN(C(=O)OCC(F)F)C3)c2F)cn1`
A: Yes

Q: Could you please tell me whether Ki recorded for `CC(C)(O)C(=O)N1CC[C@](C)(N2CCc3c(-c4cnc(N)nc4)nc(N4CCOCC4)nc32)C1` is less than 4 nM?
A: No
